- procedure-text: NCI Yeast Anticancer Drug Screen. Data for the mlh1 rad18 strain (AID 175)
- protocol-conditions: S. cerevisiae mlh1 rad18 strain growth inhibition; at 50.0 µM (retest, dose inferred, filed as 5.0)
The panel holds about 79,000 compounds, 15% with a hit somewhere; the sample as a whole holds those more often. The source made the active and inactive calls. Cut-off read from the data, not from the text of the source: active = growth inhibition above about 70%; inactive = the rest.
Outcomes: Yes for active, No for inactive

{"molecule": "FC(F)(F)c1cc(NC(=S)SC2CCCCC2)ccc1Cl", "cat": "Yes"}
{"molecule": "CC1(C)CC(=O)C(/C=N/c2nc(-c3cccc([N+](=O)[O-])c3)cs2)=C(O)C1", "cat": "Yes"}
{"molecule": "CC(N1CCOCC1)C(O)(c1ccccc1)c1ccccn1 (stereo unspecified)", "cat": "No"}
{"molecule": "CCN1CC(=O)N(C)C1=S", "cat": "No"}
{"molecule": "ON(Cc1ccccc1)C(=S)c1ccccc1", "cat": "Yes"}
{"molecule": "C(=NCCC[Si]12OCCN(CCO1)CCO2)c1ccc(C=NCCC[Si]23OCCN(CCO2)CCO3)cc1", "cat": "No"}

* * *

- procedure-text: NCI Yeast Anticancer Drug Screen. Data for the sgs1 mgt1 strain (AID 161);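 note: 0% = growth of cultures given vehicle only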
- protocol-conditions: S. cerevisiae sgs1 mgt1 strain, at 50.0 µM
Compounds without any hit were thinned out: in the full panel of roughly 79,000, 15% have a hit. Active and inactive are the calls of the source. Cut-off read from the data, not from the text of the source: active = growth inhibition above about 70%; inactive = the rest. Where a SMILES comes first, the peptide text is derived from it. The star is where a group is joined. Cbz = O=C(OCc1ccccc1)*; CH2Cl = ClC*
Outcomes: True (active), False (inactive)

{"compound": "CC1CN(CCCN2c3ccccc3Sc3ccc(Cl)cc32)C(C)(C)C1 (stereo not given)", "cat": "True"}
{"compound": "Brc1cc2c(c(Br)c1Br)C(Br)(Br)C(c1ccccc1)=N2", "cat": "True"}
{"compound": "Cc1ccc(NC(=S)SCc2ccco2)cc1Cl", "cat": "True"}
{"compound": "Cc1c[nH]c(=O)n(CC(=O)C2CCC3C4CCC5=CC(=O)CCC5(C)C4CCC23C)c1=O (stereo not given)", "cat": "False"}
{"compound": "CCC(C)OC(=O)Nc1cccc(Cl)c1 (stereo not given)", "cat": "True"}
{"compound": "O=C(Nc1ccc([N+](=O)[O-])cc1[N+](=O)[O-])C(=O)C(C(=O)c1ccc(Cl)c(Cl)c1)C1OC(=O)c2ccccc21 (stereo not given)", "cat": "False"}
{"compound": "O=[N+]([O-])C12CCCCC1([N+](=O)[O-])CCCC2 (stereo not given)", "cat": "False"}
{"compound": "O=C1c2cccc(S(=O)(=O)O)c2C(=O)c2cccc([N+](=O)[O-])c21", "cat": "False"}
{"compound": "O=C1C(=O)c2ccccc2C(O)=C1C(c1ccccc1)c1ccccc1", "cat": "True"}
{"compound": "C/C(=N/NC(N)=O)C1CC(CCC2([N+](=O)[O-])CCC(C)(O)C(/C(C)=N\\NC(N)=O)C2)([N+](=O)[O-])CCC1(C)O (stereo not given)", "cat": "False"}
{"compound": "Cc1c[nH]c2c(O)cc3c(c12)[C@H](CCl)CN3C(=O)c1cc2cc(NC(=O)Nc3ccc4[nH]c(C(=O)N5C[C@@H](CCl)c6c5cc(O)c5[nH]cc(C)c65)cc4c3)ccc2[nH]1", "cat": "False"}
{"compound": "CC(=O)Nc1[c-]cccc1.CC(=O)Nc1[c-]cccc1.CC(=O)O.CC(=O)O.[Pd].[Pd]", "cat": "True"}
{"compound": "O=C1c2ccccc2C(=O)c2c(Nc3cc4c5c(ccc6c7ccc8c9c(cc(Nc%10cccc%11c%10C(=O)c%10ccccc%10C%11=O)c(c3c56)c97)-c3ccccc3C8=O)C(=O)c3ccccc3-4)cccc21", "cat": "False"}
{"compound": "CC(C)CC(NC(=O)OCc1ccccc1)C(=O)NC(Cc1ccccc1)C(=O)CCl (stereo not drawn) (Cbz-Leu-Phe-CH2Cl; configuration not given here)", "cat": "False"}
{"compound": "C=C1C(O)C2(O)OCC34C(CC5C(C)=CC(=O)C(O)C5(C)C23)OC(=O)C(OC(=O)C/C=C(\\C)CCCCC)C14 (stereo not given)", "cat": "True"}

* * *

- procedure-text: NCI Yeast Anticancer Drug Screen. Data for the mlh1 rad18 strain (AID 175)
- protocol-conditions: S. cerevisiae mlh1 rad18 strain growth inhibition; at 50.0 µM (retest, dose inferred, filed as 5.0)
About 79,000 compounds went through this panel and 15% of them were active in at least one assay; those are over-represented in the sample as a whole. Active and inactive are the calls of the source. Cut-off read from the data, not from the text of the source: active = growth inhibition above about 70%; inactive = the rest.
Outcomes: active, inactive

{"molecule": "CC(CN1CCCCCCC1)C(c1ccccc1)c1ccccc1 (centres undefined)", "cat": "active"}
{"molecule": "O=C(C=P(c1ccccc1)(c1ccccc1)c1ccccc1)c1ccccc1-c1ccccc1C(=O)C=P(c1ccccc1)(c1ccccc1)c1ccccc1", "cat": "active"}
{"molecule": "O=C1C=CC(=O)N1c1ccc(-c2nc3ccccc3o2)cc1", "cat": "active"}
{"molecule": "COc1ccc2cc3c4cc(OC)c(OC)cc4ccn3c2c1", "cat": "active"}
{"molecule": "COC(=O)[C@]1(C)CCCC2(C)C3=C(CCC21)CC1(CC3)SCCS1 (some centres undefined)", "cat": "active"}
{"molecule": "O=C(Nc1ccc(Cl)c(Cl)c1Cl)Oc1c(Cl)c(Cl)c(Cl)c(Cl)c1Cl", "cat": "active"}
{"molecule": "Cc1cc(C(O)(C(F)(F)F)C(F)(F)F)c(I)c(C(O)(C(F)(F)F)C(F)(F)F)c1", "cat": "active"}
{"molecule": "CC1=C(C(=O)OCCc2ccc([N+](=O)[O-])cc2)C(c2ccccc2[N+](=O)[O-])C(C(=O)OC(C)C)=C(C)N1 (centres undefined)", "cat": "active"}
{"molecule": "CCCCCCCCCCCCNC(=O)c1cc[n+](Cc2ccc(Cl)c(Cl)c2)cc1", "cat": "active"}
{"molecule": "CCOC(=O)c1[nH]c2c([N+](=O)[O-])cccc2c1[N+](=O)[O-]", "cat": "inactive"}
{"molecule": "O=C1C(CN2CCCC2)C(O)=C(c2ccccc2)N1c1ccccc1 (centres undefined)", "cat": "inactive"}
{"molecule": "CCSSC12CCCN1C(=O)C(C)N(C)C2=O (centres undefined)", "cat": "active"}
{"molecule": "CC1CCC(NCCOC(=O)c2ccc([N+](=O)[O-])cc2)CC1 (centres undefined)", "cat": "inactive"}
{"molecule": "Cc1nc(Nc2ccc(Cl)cc2)sc1C(=O)NNc1ccc([N+](=O)[O-])cc1[N+](=O)[O-]", "cat": "inactive"}

* * *

- procedure-text: NCI Yeast Anticancer Drug Screen. Data for the mec2-1 strain (AID 157)
- protocol-conditions: S. cerevisiae mec2-1 strain, at 50.0 µM (retest, dose inferred, filed as 5.0), hits give high values
The panel holds about 79,000 compounds, 15% with a hit somewhere; the sample as a whole holds those more often. The source made the active and inactive calls. Rule as the data show it: active = growth inhibition above about 70%; inactive = the rest. Where a SMILES comes first, the peptide text is derived from it. The star is where a group is joined. OSu = O=C1CCC(=O)N1O*; OBn = c1ccc(CO*)cc1; Bn = c1ccc(C*)cc1

{"molecule": "COc1ccc2c(c1)CCCN2CCCCCCCCCN1CCCCC1", "growth inhibition": "53% (inactive)"}
{"molecule": "Cc1cc(C)[nH]c(=S)n1.[Pt]", "growth inhibition": "-3% (inactive)"}
{"molecule": "F[Si](c1ccccc1)(c1ccccc1)c1ccccc1", "growth inhibition": "87% (active)"}
{"molecule": "CCOC(=O)C1=NNC(C(=O)c2ccccc2)C1c1ccccc1 (centres undefined)", "growth inhibition": "55% (inactive)"}
{"molecule": "Clc1cc2n[nH]nc2c(Cl)c1Cl", "growth inhibition": "84% (active)"}
{"molecule": "Cc1cccc2c1C(=O)N(CC[P+](c1ccccc1)(c1ccccc1)c1ccccc1)C2=O", "growth inhibition": "87% (active)"}
{"molecule": "CC(C)CC(NC(=O)C(N)CCC(=O)OCc1ccccc1)C(=O)NC(COCc1ccccc1)C(=O)NC(Cc1ccccc1)C(=O)ON1C(=O)CCC1=O (centres undefined) (H-E(OBn)LS(Bn)F-OSu; configuration not given here)", "growth inhibition": "74% (active)"}
{"molecule": "C/C(=N/NC(N)=O)C1CC(CCC2([N+](=O)[O-])CCC(C)(O)C(/C(C)=N\\NC(N)=O)C2)([N+](=O)[O-])CCC1(C)O (centres undefined)", "growth inhibition": "0% (inactive)"}
{"molecule": "CC1CCN(SSc2nc3ccccc3s2)CC1", "growth inhibition": "94% (active)"}
{"molecule": "CCc1[nH]c2ccccc2c1N1C(=O)CC2(CCN(Cc3ccccc3)CC2)CC1=O", "growth inhibition": "25% (inactive)"}
{"molecule": "COc1ccc2c(c1)CC/C(=C\\c1ccc(OCCN(C)C)cc1)C2=O", "growth inhibition": "15% (inactive)"}
{"molecule": "Cn1c2nc(-[n+]3ccc(-c4ccccc4)cc3)nc-2c([O-])n(C)c1=O", "growth inhibition": "8% (inactive)"}
{"molecule": "N#CCC(=O)N/N=C(/CC1(O)C(=O)Nc2c(Cl)cc(Cl)cc21)c1ccccc1 (centres undefined)", "growth inhibition": "43% (inactive)"}
{"molecule": "O=C(N/C(=C\\c1ccc(/C=C(\\NC(=O)c2ccccc2)c2nc3ccccc3s2)cc1)c1nc2ccccc2s1)c1ccccc1", "growth inhibition": "32% (inactive)"}
